ASSAY SUMMARY: Half life in rat at 2.0 mg/kg, iv and 10 mg/kg, po
Type: ADME, organism-based
CONDITION SUMMARY: in vivo
Consider the cut-off 1 h. If the recorded half-life is strictly smaller, the label is t; if not, the label is f.

Some solved entries appear below for comparison.
[[record]]
structure_smiles = "COCCn1cc(-c2ccccc2)cc(NC(=O)N2CCC(n3c(=O)[nH]c4ncccc43)CC2)c1=O"
class_label = "t"

[[record]]
structure_smiles = "O=C(Nc1cc(-c2ccsc2)cn(CC(F)(F)F)c1=O)N1CCC(n2c(=O)[nH]c3ncccc32)CC1"
class_label = "t"

[[record]]
structure_smiles = "O=C(Nc1cc(-c2ccccc2)cn(CC(F)(F)F)c1=O)N1CCC(n2c(=O)[nH]c3ncccc32)CC1"
class_label = "f"

[[record]]
structure_smiles = "O=C(Nc1cc(-c2cccc(F)c2F)cn(CC(F)(F)F)c1=O)N1CCC(n2c(=O)[nH]c3ncccc32)CC1"
class_label = "f"

[[record]]
structure_smiles = "Cn1cc(-c2ccc(O)cc2)cc(NC(=O)N2CCC(n3c(=O)[nH]c4ncccc43)CC2)c1=O"
class_label = "f"


In the record for Cn1cc(-c2ccccc2)cc(NC(=O)N2CCC(n3c(=O)[nH]c4ncccc43)CC2)c1=O , is half-life less than 1 h?
f

hey, is half-life for COCCn1cc(-c2ccsc2)cc(NC(=O)N2CCC(n3c(=O)[nH]c4ncccc43)CC2)c1=O lower than 1 h or not?
f

* * *

ASSAY SUMMARY: Half life in dog at 0.5 mg/kg, iv and 1.0 mg/kg, po
Assay type: ADME, organism-based, Canis lupus familiaris
CONDITION SUMMARY: in vivo
Please note: half-life exactly at 3 h is not satisfied. Only values below 3 h get satisfied.

Consider the worked cases shown below.
[[record]]
molecule = "Cn1cc(-c2ccc(O)cc2)cc(NC(=O)N2CCC(n3c(=O)[nH]c4ncccc43)CC2)c1=O"
class_label = "satisfied"

[[record]]
molecule = "O=C(Nc1cc(-c2cccnc2)cn(CC(F)(F)F)c1=O)N1CCC(n2c(=O)[nH]c3ncccc32)CC1"
class_label = "not satisfied"

[[record]]
molecule = "O=C(Nc1cc(-c2cccc(F)c2F)cn(CC(F)(F)F)c1=O)N1CCC(n2c(=O)[nH]c3ncccc32)CC1"
class_label = "not satisfied"

[[record]]
molecule = "O=C(Nc1cc(-c2ccccc2)cn(CC(F)(F)F)c1=O)N1CCC(n2c(=O)[nH]c3ncccc32)CC1"
class_label = "not satisfied"


Now consider the entry below.
Does the reported half-life of Cn1cc(C2C=CN=N2)cc(NC(=O)N2CCC(n3c(=O)[nH]c4ncccc43)CC2)c1=O (stereo not given) stay below 3 h?
satisfied

* * *

TGT: Calcitonin gene-related peptide type 1 receptor (Homo sapiens, UniProt O60894+Q16602)
Sequence (Q16602 whole entry, one chain of several): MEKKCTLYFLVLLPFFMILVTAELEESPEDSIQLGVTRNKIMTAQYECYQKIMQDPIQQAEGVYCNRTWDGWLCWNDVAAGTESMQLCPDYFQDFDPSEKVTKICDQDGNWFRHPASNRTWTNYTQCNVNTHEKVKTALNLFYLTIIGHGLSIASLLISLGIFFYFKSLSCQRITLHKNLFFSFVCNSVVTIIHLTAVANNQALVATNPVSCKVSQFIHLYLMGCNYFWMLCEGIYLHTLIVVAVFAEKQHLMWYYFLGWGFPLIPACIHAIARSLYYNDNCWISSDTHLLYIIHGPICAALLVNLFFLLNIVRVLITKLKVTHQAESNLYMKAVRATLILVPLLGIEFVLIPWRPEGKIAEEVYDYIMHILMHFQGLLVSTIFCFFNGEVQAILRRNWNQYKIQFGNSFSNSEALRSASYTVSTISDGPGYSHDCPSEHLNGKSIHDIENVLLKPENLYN
ASSAY SUMMARY: Antagonist activity at human recombinant CL receptor /RAMP1 assessed as inhibition of cAMP accumulation by cell based assay
Assay type: functional
READOUT: log10 IC50 (log10 of the value in nM)
The figures below represent log10 of IC50, where IC50 is stated in nM.

[[record]]
structure_smiles = "O=C(Nc1cc(-c2cccnc2)cn(CC(F)(F)F)c1=O)N1CCC(n2c(=O)[nH]c3ncccc32)CC1"
tgt = "Calcitonin gene-related peptide type 1 receptor (Homo sapiens, UniProt O60894+Q16602)"
value_observed = 2.81


Your task in this section: give log10 IC50 for each listed record.
1. COCCn1cc(-c2ccccc2)cc(NC(=O)N2CCC(n3c(=O)[nH]c4ncccc43)CC2)c1=O
2. O=C(Nc1cc(-c2cccc(F)c2F)cn(CC(F)(F)F)c1=O)N1CCC(n2c(=O)[nH]c3ncccc32)CC1
3. O=C(Nc1cc(-c2cccc(F)c2)cn(CC(F)(F)F)c1=O)N1CCC(n2c(=O)[nH]c3ncccc32)CC1
4. COCCn1cc(-c2cccc(F)c2F)cc(NC(=O)N2CCC(n3c(=O)[nH]c4ncccc43)CC2)c1=O
5. Cn1cc(-c2ccsc2)cc(NC(=O)N2CCC(n3c(=O)[nH]c4ncccc43)CC2)c1=O
6. COCCn1cc(-c2cccnc2)cc(NC(=O)N2CCC(n3c(=O)[nH]c4ncccc43)CC2)c1=O
7. Cn1cc(-c2ccccc2)cc(NC(=O)N2CCC(n3c(=O)[nH]c4ncccc43)CC2)c1=O

2.82
1.26
2.08
2.21
2.52
3.08
2.69

* * *

ASSAY SUMMARY: Clearance in rat at 2.0 mg/kg, iv and 10 mg/kg, po
Format: ADME, organism-based
CONDITION SUMMARY: in vivo
Kindly supply the reported clearance values for the records listed here.
Numbers only, in mL/min/kg.

[[record]]
structure_smiles = "Cn1cc(-c2ccsc2)cc(NC(=O)N2CCC(n3c(=O)[nH]c4ncccc43)CC2)c1=O"
readout = "clearance"
value_observed = 8.9


Need clearance for each of these molecules.
1. O=C(Nc1cc(-c2ccsc2)cn(CC(F)(F)F)c1=O)N1CCC(n2c(=O)[nH]c3ncccc32)CC1
2. COCCn1cc(-c2ccsc2)cc(NC(=O)N2CCC(n3c(=O)[nH]c4ncccc43)CC2)c1=O
3. O=C(Nc1cc(-c2cccc(F)c2F)cn(CC(F)(F)F)c1=O)N1CCC(n2c(=O)[nH]c3ncccc32)CC1
4. Cn1cc(-c2ccc(O)cc2)cc(NC(=O)N2CCC(n3c(=O)[nH]c4ncccc43)CC2)c1=O
5. O=C(Nc1cc(-c2ccccc2)cn(CC(F)(F)F)c1=O)N1CCC(n2c(=O)[nH]c3ncccc32)CC1
6. COCCn1cc(-c2ccccc2)cc(NC(=O)N2CCC(n3c(=O)[nH]c4ncccc43)CC2)c1=O
7. Cn1cc(-c2ccccc2)cc(NC(=O)N2CCC(n3c(=O)[nH]c4ncccc43)CC2)c1=O

1. 9.6
2. 23.5
3. 0.8
4. 16.1
5. 2.3
6. 25.3
7. 1.3

* * *

I'd be grateful if you could share measured pIC50 for these entries.
TGT: Calcitonin gene-related peptide type 1 receptor (Homo sapiens, UniProt O60894+Q16602)
ASSAY SUMMARY: Antagonist activity at human recombinant CL receptor /RAMP1 assessed as inhibition of cAMP accumulation by cell based assay
Assay type: functional
Answers are plain numbers, as −log10 of the molar value.

[[record]]
molecule = "COCCn1cc(-c2ccsc2)cc(NC(=O)N2CCC(n3c(=O)[nH]c4ncccc43)CC2)c1=O"
value_observed = 6.27

[[record]]
molecule = "O=C(Nc1cc(-c2ccsc2)cn(CC(F)(F)F)c1=O)N1CCC(n2c(=O)[nH]c3ncccc32)CC1"
value_observed = 6.46


Would you be so kind as to report pIC50 for each listed record?
1. COCCn1cc(-c2ccn[nH]2)cc(NC(=O)N2CCC(n3c(=O)[nH]c4ncccc43)CC2)c1=O
2. Cn1cc(-c2cccc(F)c2F)cc(NC(=O)N2CCC(n3c(=O)[nH]c4ncccc43)CC2)c1=O
3. Cn1cc(-c2cccnc2)cc(NC(=O)N2CCC(n3c(=O)[nH]c4ncccc43)CC2)c1=O
4. Cn1cc(-c2ccccc2O)cc(NC(=O)N2CCC(n3c(=O)[nH]c4ncccc43)CC2)c1=O
5. Cn1cc(-c2ccccc2F)cc(NC(=O)N2CCC(n3c(=O)[nH]c4ncccc43)CC2)c1=O
6. O=C(Nc1cc(-c2ccc(O)cc2)cn(CC(F)(F)F)c1=O)N1CCC(n2c(=O)[nH]c3ncccc32)CC1
7. Cn1cc(C2C=CN=N2)cc(NC(=O)N2CCC(n3c(=O)[nH]c4ncccc43)CC2)c1=O (centres undefined)
8. COCCn1cc(-c2ccc(O)cc2)cc(NC(=O)N2CCC(n3c(=O)[nH]c4ncccc43)CC2)c1=O

1. 6.51
2. 6.25
3. 5.97
4. 6.08
5. 6.32
6. 6.55
7. 6.74
8. 6.77

Could you report pIC50 for every entry in the following list?
1. O=C(Nc1cc(-c2ccccc2)cn(CC2CC2)c1=O)N1CCC(n2c(=O)[nH]c3ncccc32)CC1
2. O=C(Nc1cc(-c2ccccc2F)cn(CC(F)(F)F)c1=O)N1CCC(n2c(=O)[nH]c3ncccc32)CC1
3. O=C(Nc1cc(-c2ccn[nH]2)cn(CC(F)(F)F)c1=O)N1CCC(n2c(=O)[nH]c3ncccc32)CC1
4. O=C(Nc1cc(-c2ccccc2)cn(CC(F)(F)F)c1=O)N1CCC(n2c(=O)[nH]c3ncccc32)CC1

1: 6.52; 2: 6.73; 3: 6.26; 4: 6.68

For every item in the list below, what is its measured pIC50?
1. Cn1cc(-c2ccc(O)cc2)cc(NC(=O)N2CCC(n3c(=O)[nH]c4ncccc43)CC2)c1=O
2. Cn1cc(-c2cccc(O)c2)cc(NC(=O)N2CCC(n3c(=O)[nH]c4ncccc43)CC2)c1=O
3. O=C(Nc1cc(-c2ccccc2)cn(CC2CC2)c1=O)N1CCC(n2cc(-c3ccccc3)[nH]c2=O)CC1

1: 7.06; 2: 6.85; 3: 6.44

Go through the list and state pIC50 for each entry.
1. Cn1cc(-c2cccc(F)c2)cc(NC(=O)N2CCC(n3c(=O)[nH]c4ncccc43)CC2)c1=O
2. COc1ccc(-c2cc(NC(=O)N3CCC(n4c(=O)[nH]c5ncccc54)CC3)c(=O)n(C)c2)cc1

1. 6.47
2. 5.82
